pIC50: −log10 of the molar value.
Before we begin, note that these pIC50 values for ITK (Homo sapiens, UniProt Q08881) originate from several publications.

CC#CC(=O)N[C@H]1CC[C@H](n2nc(-c3ccc(Oc4ccccc4)cc3)c3cncnc32)CC1: < 6.30
CC#CC(=O)N1CCC[C@H]1c1nc(-c2ccc(C(=O)Nc3nccs3)c(OC)c2)c2c(N)nccn12: < 6.00
C=CC(=O)N1CC[C@H](n2nc(-c3ccc(C(=O)Nc4ccccc4)cc3)c3c(N)nccc32)C1: < 6.00
O=C(C#CCN1CCCCC1)N1CC2(CC(n3nc(-c4ccc(Oc5ccccc5)cc4)c4cncnc43)C2)C1: < 6.30
C=CC(=O)N1CCC[C@@H](n2nc(-c3ccc(Oc4ccccc4F)cc3)c3cncnc32)C1: < 6.30
C=CC(=O)N1CC2(CC(n3nc(-c4ccc(Oc5ccccc5)cc4)c4cncnc43)C2)C1: < 6.30

# evaluate next
Request: Item `CN(C)C/C=C/C(=O)Nc1cc(-c2cnc3[nH]cc(-c4cccc(C#N)c4)c3c2)cc(C(F)(F)F)c1` with ITK (Homo sapiens, UniProt Q08881) - pIC50?
Response: ≥ 7.00
